Hello, the source for this data is paper PMC6270091, in case you need it.

Structures can show the parent of a compound that is named as a salt.
Kindly state melting point for each of the entries shown.

stdin: Give its melting point value. Item: NCCC(CC(=O)O)c1ccc(Cl)c(Cl)c1 (racemic) (as salt: hydrochloride) [Compound 1e]
stdout: 201 to 203 °C

stdin: Give its melting point value. Item: Cc1ccc(C(CCN)CC(=O)O)cc1 (racemic) (as salt: hydrochloride) [Compound 1c]
stdout: 204 to 206 °C

stdin: Give its melting point value. Item: COc1ccc(C(CCN)CC(=O)O)cc1 (racemic) (as salt: hydrochloride) [Compound 1h]
stdout: 194 to 195 °C

stdin: Give its melting point value. Item: NCCC(CC(=O)O)c1ccccc1 (racemic) (as salt: hydrochloride) [Compound 1d]
stdout: 195 to 196 °C

stdin: Give its melting point value. Item: NCCC(CC(=O)O)c1ccc(Cl)cc1Cl (racemic) (as salt: hydrochloride) [Compound 1b]
stdout: 215 to 217 °C
